B1: PHTF1 (parent)
chain: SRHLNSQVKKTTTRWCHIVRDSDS

Variants of: B1
Assay: protein stability index of a GFP-peptide fusion (GPS, HEK-293T) (PSI 1-6); higher = more stable;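 also: lentivirally expressed fusions sorted by FACS into six bins by GFP to DsRed ratio, PSI derived from sequencing read proportions per bin multiplied by bin number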
Conditions: c terminus: a fixed tail appended

Variant spec	protein stability index
N5R	3.93
T12A	2.1
T12I	1.93
